# Test system: MILI (PIWIL2) piRISC loaded with L1MC piRNA (26 nt);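 further: 1 nM active piRISC with 0.1 nM target library at 33 °C single turnover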
# TEST_SUMMARY: pre-steady-state target cleavage rate (min^-1); guide: L1MC piRNA 5'p-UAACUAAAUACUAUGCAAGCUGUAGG; MIWI and MILI are mouse PIWI proteins and EfPiwi is from a freshwater sponge; tags in brackets are library labels; higher = faster piRNA-guided slicing of the target
# SETTINGS: auxiliary factor: 500 nM mouse GTSF1
MEASUREMENT_LABEL: pre-steady-state target cleavage rate
Give the value as a plain number.

Here is how some sequences turned out for pre-steady-state target cleavage rate.
>>> numeric_value("UCCUGCUACAGCUUGCAAAGUAUUUAGAAA")
0.159
>>> numeric_value("UCCUGGAUGUGCUUGCAUAGUAUUUAAGUUA")
0.158
>>> numeric_value("UCCUGGAUGUGCUUGCAUAGUAUUUAGAAA")
0.0532
>>> numeric_value("UCCUGGAUGUGAUUGCAUAGUAUUUAGUUA")
0.115

GET /value?item= UCCUGGUAGAGCUUGCAUAGUAUUAAGUUA &field=pre-steady-state target cleavage rate returns 0.207

GET /value?item= UCCUGGAUGUCCUUGCAUUGUAUUUUGUUA &field=pre-steady-state target cleavage rate returns 0.0388

GET /value?item= UCCUGGAUGUCCUUGCAUACUAUUUACUUA &field=pre-steady-state target cleavage rate returns 0.0119

GET /value?item= UCCUGCUACAGCUUGCAUAGUAAAAAGAAA &field=pre-steady-state target cleavage rate returns 0.0111

GET /value?item= UCCUGGAUGUCCUUGCAUAGUAUUUACUAA &field=pre-steady-state target cleavage rate returns 0.0464

GET /value?item= UCCUGCUACAGCUUGCAUUCAAUUUAGUUA &field=pre-steady-state target cleavage rate returns 0.00485

GET /value?item= UCCUGGAACAGCUUCGAUAGUAUUUAGAAA &field=pre-steady-state target cleavage rate returns 0.0923

GET /value?item= UCCUGGAUGUCCUUGUCAUAGUAUUUAGUUA &field=pre-steady-state target cleavage rate returns 0.0189

GET /value?item= UCCUGGAUGUCGUUGCAUAGUAUUCAGUUA &field=pre-steady-state target cleavage rate returns 0.0553

GET /value?item= UCCUGGAUGUCGAUGCUUAGUAUAUAGUUA &field=pre-steady-state target cleavage rate returns 0.0304

GET /value?item= UCCUGGAUGUCCUUGCCAUAGUAUUUAGUUA &field=pre-steady-state target cleavage rate returns 0.00783

GET /value?item= UCCUGGAUGAGCAUGCAUAGUAUUUACAAA &field=pre-steady-state target cleavage rate returns 0.0679

GET /value?item= UCCUCCUUCAGCUUGCAUAGUAUUUUGUUA &field=pre-steady-state target cleavage rate returns 0.139

GET /value?item= UCCUCCUACAGGAUGCAUAGUAUUUAGAAA &field=pre-steady-state target cleavage rate returns 0.0838

GET /value?item= UCCUGGAUCAGCUUGCAUAGUAAUUACUUA &field=pre-steady-state target cleavage rate returns 0.0264

GET /value?item= UCCUGGAUCAGCUUGCAUAGUAAAAAGAAA &field=pre-steady-state target cleavage rate returns 0.0472

GET /value?item= UCCUGGAUGAGCUUACAUAGUAUUUAGUUA &field=pre-steady-state target cleavage rate returns 0.153
